These entries and their values trace back to a melting point compilation (Tetko et al.; mined from patent text by program, amines drawn as free bases though some values may be those of a salt).

Provide the recorded melting point for the entries that follow.

Take a look at these entries with their results.
COc1ccc(NC(=O)c2ccc(-c3ccc(C(=O)N4CCC4)cc3C)cc2)cc1N1CCN(C)CC1 ... 167 to 170 °C
O=C(CCC(=O)N1CCC(N2Cc3ccccc3NC2=O)CC1)c1ccc(Cl)c(Cl)c1 ... 224 to 226 °C

Data request: Quick one: melting point for `O=C(O)c1cc2cc(C(F)(F)F)cnc2n1Cc1ccncc1` ?
Data returned: 302 to 303 °C

* * *

Property label: melting point

Take a look at these entries with their results.
Cc1ccc2nc3cc(C)c(=O)c(Cl)c-3sc2c1 ... 193 to 195 °C
Cc1cc(O)cc(-c2nn(CC#N)cc2-c2cc(NC[C@H](C)O)nc(-c3cccnc3)n2)c1 ... 236 °C
C[C@@H]1OC(=O)C2=C[C@H]3CCCC[C@@H]3[C@@H](O)[C@H]21 ... 191 to 193 °C
Cc1cn(Cc2ccccc2)c(=O)n(CC2(CO)CC2)c1=O ... 81.5 °C

Need melting point for each of these compounds.
1. O=C(O)CCc1oc(N2CCOCC2)nc1-c1ccc(Cl)cc1
2. CC(=O)Oc1nc(-c2ccc(C(=O)O)cc2)sc1C
3. CC[C@H](NS(=O)(=O)c1ccc(OC)cc1)C(=O)OC
4. CN(CCO)Cc1ccc2c(c1)c(=O)c(C(=O)NCc1ccc(Cl)cc1)cn2C
5. Cc1cc(CNC(=O)c2sc(N3C[C@@H](C)N(Cc4cc(F)cc(F)c4)C3=O)nc2C)no1
6. Cc1cc(Oc2ccc3nc(COc4ccc(CC5SC(=O)NC5=O)cc4)n(C)c3c2)cc(C)c1NC(=O)Nc1ccc([N+](=O)[O-])cc1 (centres undefined)

Data returned:
1: 180 to 181 °C; 2: 227 to 230 °C; 3: 64 °C; 4: 130 to 131 °C; 5: 63 to 66 °C; 6: 178 to 180 °C

Need melting point for each of these compounds.
1. COc1ccc(OC)c2c1C(=O)C=C(SCCCCCCCCCCC(=O)NCC(C)C)C2=O
2. O=Cc1cc(Br)cnc1Cl

Data returned:
1: 74 to 75 °C; 2: 88 to 89 °C

Need melting point for each of these compounds.
1. COC(=O)CC1CCN(C(=O)c2cnc(-c3ccc(C(=N)NC(=O)OC)cc3)nc2OC)CC1
2. CC(=O)Nc1ccc(C2=NN(c3nnc(C)s3)[C@H](C)Cc3cc4c(cc32)OCO4)cc1C

Data returned:
["193 to 195 °C", "267 to 269 °C"]
